System: A431 (WT)
assay_method_text: EGFR cell proliferation assay (CellTiter-Glo), A431
Assay type: cell-based
run_conditions: Homo sapiens, A-431, 3-5 days of compound treatment
pIC50: −log10 of the molar value.
measurement_kind: pIC50

Answered examples (3):
C=CC(=O)Nc1cc(Nc2nccc(-c3cn(C45CC(F)(C4)C5)c4ccccc34)n2)c(OC)cc1N(C)CCN(C)C [Example 7] : ≤ 6.52
C=CC(=O)Nc1cc(Nc2nccc(-c3cn(C)c4ccccc34)n2)c(OC)cc1N(C)C12CC(N(C)C)(C1)C2 [Example 6] : ≤ 6.52
C=CC(=O)Nc1cc(Nc2nccc(-c3nn(C45CC(C4)C5)c4ccccc34)n2)c(OC)cc1N(C)CCN(C)C [Example 5] : ≤ 6.52

Could you now consider this next compound?
Would you kindly share the measured pIC50 for C=CC(=O)Nc1cc(Nc2ncc(C#N)c(-c3cn(C45CC(C4)C5)c4ccccc34)n2)c(OC)cc1N(C)CCN(C)C [Example 3] ?
6.52 to 7.30

Values compiled from patent US12049460B2.
